- target-of-assay: T1, 人CD43 (human CD43, UMG1 epitope), endogenous on human cells, cell lines and tissues (human, UniProt P16150 20-400)
- T1 construct: The cells carry the natural protein; also called UMG1表位; UMG1抗原
- T1 sequence: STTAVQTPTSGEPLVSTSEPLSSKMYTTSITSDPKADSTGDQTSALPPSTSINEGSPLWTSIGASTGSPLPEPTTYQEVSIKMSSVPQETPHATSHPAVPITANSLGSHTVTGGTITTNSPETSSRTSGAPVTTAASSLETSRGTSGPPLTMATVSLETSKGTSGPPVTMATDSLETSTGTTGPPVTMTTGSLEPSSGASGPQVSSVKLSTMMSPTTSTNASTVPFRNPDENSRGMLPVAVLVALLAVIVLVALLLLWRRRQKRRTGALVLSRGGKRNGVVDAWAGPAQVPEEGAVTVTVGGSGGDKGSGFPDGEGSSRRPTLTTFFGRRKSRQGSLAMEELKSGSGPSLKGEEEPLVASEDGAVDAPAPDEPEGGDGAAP
- protocol-text: flow cytometry (MFI) on HPB-ALL and H9 cells, 1 μg/ml, FITC mouse anti-human IgG
value-kind: binding result

// known answers, use as guide
binder | binding result
人源化UMG1抗体 H3-L3 (antibody, IgG1, V domains shown, one of the 16 combinations of H1-4 with L1-4) VH: EVQLVESGGGLVQPGGSLRLSCVASGFTFSSFGMHWVRQAPGKGLEWVAYISSGSGNFYYVDTVKGRFTISRDNAKNSLYLQMNSLRAEDTAVYYCARSTYYHGSRGAMDYWGQGTLVTVSS VL: QVVMTQSPAFLSVTPGEKVTITCSASSSVSSMYWYQQKPDQAPKLLIYDTSKMASGVPSRFSGSGSGTDFTFTISSLEAEDAATYYCQQWSSYPPITFGGGTKVEIK | binds
人源化UMG1抗体 H1-L4 (antibody, IgG1, V domains shown, one of the 16 combinations of H1-4 with L1-4) VH: EVQLVESGGGLVQPGGSLRLSCAASGFTFSSFGMHWVRQAPGKGLEWVSYISSGSGNFYYVDTVKGRFTISRDNAKNSLYLQMNSLRAEDTAVYYCARSTYYHGSRGAMDYWGQGTLVTVSS VL: QVVMTQSPAFLSVTPGEKVTITCSASSSVSSMYWYQLKPDQAPKLLIYDTSKMASGVPIRFSGSGSGTDFTFTVSSVEAEDAATYYCQQWSSYPPITFGGGTKVEIK | binds
人源化UMG1抗体 H1-L2 (antibody, IgG1, V domains shown, one of the 16 combinations of H1-4 with L1-4) VH: EVQLVESGGGLVQPGGSLRLSCAASGFTFSSFGMHWVRQAPGKGLEWVSYISSGSGNFYYVDTVKGRFTISRDNAKNSLYLQMNSLRAEDTAVYYCARSTYYHGSRGAMDYWGQGTLVTVSS VL: EIALTQSPATLSLSPGERATLSCSASSSVSSMYWYQLKPGLAPRLLIYDTSKMASGIPIRFSGSGSGTDFTLTVSRVEPEDFAVYYCQQWSSYPPITFGQGTRLEIK | binds
人源化UMG1抗体 H3-L2 (antibody, IgG1, V domains shown, one of the 16 combinations of H1-4 with L1-4) VH: EVQLVESGGGLVQPGGSLRLSCVASGFTFSSFGMHWVRQAPGKGLEWVAYISSGSGNFYYVDTVKGRFTISRDNAKNSLYLQMNSLRAEDTAVYYCARSTYYHGSRGAMDYWGQGTLVTVSS VL: EIALTQSPATLSLSPGERATLSCSASSSVSSMYWYQLKPGLAPRLLIYDTSKMASGIPIRFSGSGSGTDFTLTVSRVEPEDFAVYYCQQWSSYPPITFGQGTRLEIK | binds

binder 人源化UMG1抗体 H4-L4 (antibody, IgG1, V domains shown, one of the 16 combinations of H1-4 with L1-4) VH: QVQLVESGGGVVQPGGSLRLSCVASGFTFSSFGMHWVRQAPGKGLEWVAYISSGSGNFYYVDTVKGRFTISRDNSKNTLYLQMNSLRAEDTAVYYCARSTYYHGSRGAMDYWGQGTLVTVSS VL: QVVMTQSPAFLSVTPGEKVTITCSASSSVSSMYWYQLKPDQAPKLLIYDTSKMASGVPIRFSGSGSGTDFTFTVSSVEAEDAATYYCQQWSSYPPITFGGGTKVEIK , binding result observed: binds
